experiment_notes: yeast display, Sf9 membrane polyspecificity reagent, FACS + sequencing; frameworks hold sequencing errors
quantity_measured: polyreactivity (PSR sort gate)

Take a look at these entries with their results.
Asked: Recorded polyreactivity (PSR sort gate) of `QVQLVESGGGLFQAGGILRLTCAASGLTIYDYAMRWSRQAPAKERELVAANTRSAGSTYYADSVKGRFTISRDYAKYTVYLLMNSLKPEDTAVYYCAARGKIRYQGYYGSDQYYYWGQGTQVSVSS` , please.
Given back: high polyreactivity

Asked: Recorded polyreactivity (PSR sort gate) of `QVQLVESGGCLVQAGGSLRLSCAASGSISTNYAMGWYRQAPGKERELVAAISDSSGSTYYADSVKGRFTISRDNAKNTVYLQMNSLKPVDTAVYYCNADSQGGRDVHYDYEYYYWGQGTQVTVSS` , please.
Given back: low polyreactivity

Asked: Recorded polyreactivity (PSR sort gate) of `QVQLVESGGGLVQEGGSLRLSCAASGRPFYNAMGWYRPAPGKERELVAGIRWSGASTYYADSVKGRFTISRDNAKNTVYLQMNSLKPEDTAVYYCAARRHSTRLRLTSDYWGHGTQVTVSS` , please.
Given back: high polyreactivity

Asked: Recorded polyreactivity (PSR sort gate) of `QVQLVESVGRLVQAGGSLRLSCAASGSIIRSYTKGWYRQAPGKEWELVAASSGRAGSTYYADSVKGRFTISRDIAKNTVYLQMPGLKPEDTAVYYCAVILGGRAQSYYWGHGTQVTVSS` , please.
Given back: high polyreactivity

Batch lookup, polyreactivity (PSR sort gate) per entry.
1. QVQLVESGGGLVQAGGSLRLSCAASGSTFHLYAMGWYRQAPGKETEIVAAIRGRGGNTYADSVKGRFTISRDNAKHTVYFQMNSLKPEDTAVSYCATSISEYQDFTRYDYWGQGTQVTVSS
2. QVQLGESGGGLVQAGGSLRLSCAASGRTLWFYAMGWYRQAPGKERELVAAISSGGSTNYGDSVKGRFTISRDNAKNTVYLQMNSLKPEDTAVYYCAKVGNIPYGTRYDSNRYDYWGQGTQVTVSS
3. QVQLVESGGGLVQAGGSLPLSCAASGRIFNGYAMGGYIQAPGKERELVAAICWRGGRTYYADSVKGRFTISRDNAMNTVYLQRNSLKAEDTAVYYCNKDLPPQGQLRNMYYWGQGTIVTVSS
4. QVQLVESGGGLVQAGGSLRLSCAASGGTLASYAMGRYRQATGKERELVAAITRGGGSTHYADSVKGRFTISRDNAKNTVYLQMNSLKPADTAVYYCNARVRPGYGYWGQGTQVTVSS
5. QVQIVESGGGLVQAGGSLRLSCAASGRILEGYAMGWYRQAPGKERELVAAISFSTTTTYYADSVKGRFTISRDNAKNTVYLQMNSLKPEDTAVYYCAADSQQSDYDYWGQGTQVTVSS
6. QVQLVESGGGLVQAGGSLRLSCAASGRTFIGYAMGWYRQAPGKERELVATISVSGGSTYYADSVKGRFTISRDNAKNTVYLQMNSLKPEDTAVYYCAKAYLRFYDGPYDYWGQGTQVTVSS
7. QVQLVESGGGLVQAGGSLRLSCAASGSTSLKNAMGWYRQAPGKERELVAAINSVGDTYYADSVKGRFTISRDNAKNTVYLQMNSLKPEDTAVYYCAKRVVRYGKRMGYWGQGTQVTVSS

Given back:
1: low polyreactivity; 2: low polyreactivity; 3: high polyreactivity; 4: high polyreactivity; 5: high polyreactivity; 6: low polyreactivity; 7: high polyreactivity
